Tested on: HT29 colon
EXPERIMENTAL_PROTOCOL: NCI tumour cell line growth inhibition, 48 h
RECORDED_METRIC: TGI (µM)
Note: unit µM is implicit; provide only the numeric part.

Before answering, review these 3 worked examples.
molecule=CCN(CC)CCCNc1[nH]ncc2c(C)c3nc4ccc(OC)cc4c3cc12 system_name="HT29 colon" recorded_metric=TGI recorded_measurement=6.04
molecule="CC12CCC3c4cc(Br)c(O)c(Br)c4CCC3C1CCC2O (centres undefined)" system_name="HT29 colon" recorded_metric=TGI recorded_measurement=29.1
molecule=O=S(=O)(/N=C(\NO)Nc1ccc(Cl)cc1)c1ccccc1 system_name="HT29 colon" recorded_metric=TGI recorded_measurement=41.3

Kindly consider the entry below.
Identify measured TGI associated with `C=C1C(=O)O[C@H]2[C@H]1CC/C(COC(=O)NCCc1c[nH]c3ccc(Cl)cc13)=C\CC[C@@]1(C)O[C@@H]21`
3.24

###

Test system: SNB-75 CNS
EXPERIMENTAL_PROTOCOL: NCI tumour cell line growth inhibition, 48 h
RECORDED_METRIC: TGI (µM)
Note: unit µM is implicit; provide only the numeric part.

Before answering, review these 2 worked examples.
molecule="CCOC(=O)c1cc(C2CCN(c3ccccc3)C2=O)c(C(=O)/C=C(/C)N)[nH]1 (stereo unspecified)" recorded_measurement=28.2
molecule="COc1nc2c(c(=O)n1C)N=C(c1ccc(Cl)cc1)CC(c1ccccc1)N2 (stereo unspecified)" recorded_measurement=46.7

Identify measured TGI associated with C=CCc1cc(C(Cc2ccccc2)NC(C)C)cc(OCc2ccccc2)c1OCc1ccccc1 (stereo unspecified)
26.2

Identify measured TGI associated with `N#Cc1c(N)nc(NCc2ccccc2)c(C#N)c1-c1ccc(Cl)cc1Cl`
99

Identify measured TGI associated with `S=C=NCCc1ccccc1`
11.8

Identify measured TGI associated with `N#CN1CC[C@H](C(=O)Nc2cc3cc(C(N)=O)ccc3cn2)C1`
0.512

Identify measured TGI associated with `C=C1C(=O)O[C@H]2[C@H]1CC/C(COC(=O)NCCc1c[nH]c3ccc(Cl)cc13)=C\CC[C@@]1(C)O[C@@H]21`
2.97

Identify measured TGI associated with `C[C@@H]1COCCN1c1cc(C2([S@@](C)(=N)=O)CC2)nc(-c2ccnc3[nH]ccc23)n1`
28.6

Identify measured TGI associated with `CCN(CC)CCCNc1[nH]ncc2c(C)c3nc4ccc(OC)cc4c3cc12`
2.1

###

Test system: M14 melanoma
EXPERIMENTAL_PROTOCOL: NCI tumour cell line growth inhibition, 48 h; in the data active means GI50 below about 0.43 µM; inactive means the rest
Lab note: assign the record to one of active, inactive

These recorded examples may help you get a feel for the data.
compound=COc1ccccc1NS(=O)(=O)c1ccc2oc(SC(C)C)nc2c1 system_name="M14 melanoma" class=inactive
compound=O=C(NCCNc1nccc(-c2c(-c3cccc(O)c3)nc3sccn23)n1)c1ccccc1 system_name="M14 melanoma" class=inactive
compound=CCS(=O)(=O)c1ccc(OC)c(Nc2ncc(-c3ccccc3Cl)o2)c1 system_name="M14 melanoma" class=inactive
compound=Cc1cc(Cl)ccc1Nc1nc(C(F)(F)F)ccc1C(=O)N/N=C/c1ccccc1Cl system_name="M14 melanoma" class=inactive
compound=O=C(Nc1ccccc1O)c1ccc(NS(=O)(=O)c2cccc3cccnc23)cc1 system_name="M14 melanoma" class=inactive
compound=O=C(N/N=C/c1cc(Cl)cc(Cl)c1[O-])c1ccccc1.O=C(N/N=C/c1cc(Cl)cc(Cl)c1[O-])c1ccccc1.[Co+2] system_name="M14 melanoma" class=inactive
compound=N#CN1CC[C@H](C(=O)Nc2cc3cc(C(N)=O)ccc3cn2)C1 system_name="M14 melanoma" class=active
compound=Nc1ccccc1C#C/C=C\C#Cc1c(F)c(F)c(F)c(F)c1F system_name="M14 melanoma" class=inactive

Kindly provide the recorded test outcome for the following compound: CC1=C(C)C2(O)C(=C(C)C1=O)/C(=C(/O)c1ccccc1)c1nc3ccccc3n12 (stereo not drawn)
inactive

Kindly provide the recorded test outcome for the following compound: `C#COc1cccc(Nc2ncnc3cc(NC(=O)[C@H](C)Cl)ccc23)c1`
inactive

Kindly provide the recorded test outcome for the following compound: `O=C(C[P+](c1ccccc1)(c1ccccc1)c1ccccc1)C[P+](c1ccccc1)(c1ccccc1)c1ccccc1`
active

Kindly provide the recorded test outcome for the following compound: `CC1=C[C@H]2C[C@H](C)[C@H]3CC[C@H](C)[C@]4(C1)C(=O)C(O)=C(C)C(=O)[C@@]324`
inactive

Kindly provide the recorded test outcome for the following compound: `COc1cc(NCCN=C(N)NC(N)=NC(C)C)c2ncccc2c1`
inactive
